Test system: HCT116 MTAP KO cells
Test details: Inhibitory activity against cell proliferation (CellTiter Glo, 6 days), HCT116 MTAP KO
Type: cell-based
Test settings: ratio of IC50 HCT116-WT / HCT116 MTAP KO
Parameter measured: Selectivity HCT 116-WT/ HCT116 MTAP KO
One number for each entry.

# Compound, Study target, Selectivity HCT 116-WT/ HCT116 MTAP KO
measured = [
    ("Cc1cc2cc(C(=O)N(Cc3ccc(-c4cncs4)cn3)N(C)c3ncccn3)ccc2nc1N", "HCT116 MTAP KO cells", 28.29),
    ("Cc1cc2cc(C(=O)N(Cc3ccc(C(F)(F)F)cn3)N(C)c3ncc4ncccc4n3)ccc2nc1N", "HCT116 MTAP KO cells", 14.18),
    ("Cn1ncc2c(N)nc3cc(Cl)c(C(=O)N4CC(C)(F)CN4c4ncc(F)cc4F)cc3c21 (stereo not shown)", "HCT116 MTAP KO cells", 16.26),
    ("CN(c1ncccn1)N(Cc1ccc(C(F)(F)F)cn1)C(=O)c1ccc2nc(N)c3cnccc3c2c1", "HCT116 MTAP KO cells", 19.64),
    ("Cc1cc2cc(C(=O)N(Cc3ccc(C(F)(F)F)cn3)N(C)c3ncc(C#N)cn3)ccc2nc1N", "HCT116 MTAP KO cells", 14.92),
]

Please report Selectivity HCT 116-WT/ HCT116 MTAP KO for every entry that follows.
1. CC1CN(C(=O)c2cc3c(cc2F)nc(N)c2cnn(C)c23)N(c2ncccc2F)C1 (single isomer, unassigned) [Example 466]
2. CCn1cc(-c2ccc(CN(C(=O)c3ccc4nc(N)c(C)cc4c3)N(C)c3ncccn3)nc2)cn1
3. Cc1cc2cc(C(=O)N(Cc3ccc(C(F)(F)F)cn3)N(C)c3ncc(Br)cn3)ccc2nc1N
4. Cc1cc2nc(N)c3c(c2cc1C(=O)N1CC(C)CN1c1ncccc1F)COC3C (stereo not shown)
5. COC(C)(C)C#Cc1cnc(N2CC(C)CN2C(=O)c2cc3c(cc2C)nc(N)c2cnn(C)c23)c(F)c1 (stereo not shown)
6. Cc1csc(-c2ccc(CN(C(=O)c3ccc4nc(N)c(C)cc4c3)N(C)c3ncccn3)nc2)c1
7. COc1cc(-c2ccc(CN(C(=O)c3ccc4nc(N)c(C)cc4c3)N(C)c3ncccn3)nc2)cnc1F
8. Cc1cc2cc(C(=O)N(Cc3ccc(C(F)(F)F)cn3)N(C)c3nccc4occc34)ccc2nc1N

50.77
51.17
17.33
33.55
11.81
15.85
18.53
54.14

###

Study target: PRMT5-MTA (Homo sapiens)
Sequence (O14744 whole entry): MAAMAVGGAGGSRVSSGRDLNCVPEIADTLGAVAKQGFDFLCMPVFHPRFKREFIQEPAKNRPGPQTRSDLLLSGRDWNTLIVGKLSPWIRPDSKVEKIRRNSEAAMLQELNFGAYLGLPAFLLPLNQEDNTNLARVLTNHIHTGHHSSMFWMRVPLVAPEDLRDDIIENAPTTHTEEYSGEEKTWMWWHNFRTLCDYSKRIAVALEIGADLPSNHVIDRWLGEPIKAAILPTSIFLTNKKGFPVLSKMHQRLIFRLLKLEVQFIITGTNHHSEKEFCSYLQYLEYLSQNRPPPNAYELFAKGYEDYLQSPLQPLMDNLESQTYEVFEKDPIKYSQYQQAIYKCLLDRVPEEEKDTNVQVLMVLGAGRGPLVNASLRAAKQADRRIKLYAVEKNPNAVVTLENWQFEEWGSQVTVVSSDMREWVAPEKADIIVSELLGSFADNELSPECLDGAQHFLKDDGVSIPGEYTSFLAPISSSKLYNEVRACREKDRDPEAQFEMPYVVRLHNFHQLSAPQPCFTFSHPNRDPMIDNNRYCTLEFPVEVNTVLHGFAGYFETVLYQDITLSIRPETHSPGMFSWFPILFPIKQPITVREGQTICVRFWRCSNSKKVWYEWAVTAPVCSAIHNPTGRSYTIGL
Sequence (Q9BQA1 whole entry partner): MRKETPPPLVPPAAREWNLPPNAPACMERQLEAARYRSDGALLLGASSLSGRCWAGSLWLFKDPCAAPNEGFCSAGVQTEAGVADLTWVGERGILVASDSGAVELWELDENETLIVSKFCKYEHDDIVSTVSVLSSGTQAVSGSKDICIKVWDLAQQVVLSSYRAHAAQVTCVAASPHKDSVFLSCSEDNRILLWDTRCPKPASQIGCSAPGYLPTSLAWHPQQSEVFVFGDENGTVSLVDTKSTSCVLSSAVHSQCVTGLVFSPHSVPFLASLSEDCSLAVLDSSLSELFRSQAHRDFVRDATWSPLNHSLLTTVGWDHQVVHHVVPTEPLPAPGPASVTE
Test details: Enzymatic inhibitory activity against PRMT5-MTA (AlphaScreen)
Format: biochemical
Test settings: read-out: IC50
Please go through the items and note down their IC50.
Give bare numbers, in nM.

Recorded IC50, per entry:
# Compound, IC50 [nM]
measured = [
    ("Cc1cc2nc(N)c3cnn(C)c3c2cc1C(=O)N1CC(C)CN1c1c(F)cccc1F (stereo not shown)", 5.8),
    ("Cc1cc2nc(N)c3cnn(C)c3c2cc1C(=O)N1CCCN1c1ccncc1", 2.9),
    ("C=C1CN(C(=O)c2cc3c(cc2Cl)nc(N)c2cnn(C)c23)N(c2ncc(Cl)cc2F)C1", 6.1),
    ("Cc1cc2nc(N)c3cnn(C)c3c2cc1C(=O)N1C(C)CCN1c1ncccc1F (stereo not shown)", 2.5),
    ("COC1CN(C(=O)c2cc3c(cc2Cl)nc(N)c2cnn(C)c23)N(c2ccccc2F)C1 (stereo not shown)", 4.7),
]

Please report IC50 for every entry that follows.
1. Cc1cc2cc(C(=O)N(Cc3ccc(C(F)(F)F)cn3)N(C)c3ncc4[nH]ccc4n3)ccc2nc1N
2. Cc1cc2nc(N)c3cnn(C)c3c2cc1C(=O)N1CC(C)CN1c1ncncc1F (stereo not shown)
3. COC(C)(C)C#Cc1cnc(N2CC(C)CN2C(=O)c2cc3c(cc2C)nc(N)c2cnn(C)c23)c(F)c1 (stereo not shown)
4. CN(c1ncccn1)N(Cc1ccc(C(F)(F)F)cn1)C(=O)c1ccc2nc(N)c3c(c2c1)COC3
5. Cc1cc2nc(N)c3cnn(C)c3c2cc1C(=O)N(Cc1ccc(C(F)(F)F)cn1)N(C)c1ncccn1

[2.5, 4.9, 8.6, 7.8, 4]

Please report IC50 for every entry that follows.
1. Cc1cc2cc(C(=O)N(Cc3ccc(-c4cnsc4)cn3)N(C)c3ncccn3)ccc2nc1N
2. Cc1cc2cc(C(=O)N(Cc3ccc(C(F)(F)F)cn3)N(C)c3nccc4sccc34)ccc2nc1N

1. 6.9
2. 2.7

Please report IC50 for every entry that follows.
1. CCN(C(=O)c1ccc2nc(N)c3c(c2c1)COC3)N(C)c1ccc(C(F)(F)F)cc1
2. CN(c1ncccn1)N(Cc1ccc(C(F)(F)F)cn1)C(=O)c1ccc2nc(N)c(CO)cc2c1

2
2.3

Please report IC50 for every entry that follows.
1. Cc1cc2nc(N)c3cnn(C)c3c2cc1C(=O)N1CC(C)CN1c1ncc(-c2cscn2)cc1F (stereo not shown)
2. Cc1cc2nc(N)c3cnn(C)c3c2cc1C(=O)N(C)N1CCc2cccnc21

1. 5.3
2. 1.9
